SYSTEM_UNDER_TEST: phosphodiesterase isolated from cattle brain
ASSAY_INFO: phosphodiesterase inhibition, enzyme isolated from cattle brain
MEASUREMENT_CONDITIONS: inhibitor concentration giving 50% decrease of enzyme activity, 20 minutes incubation, read-out: 150(μmoles) cattle brain
Where a name gives a salt, the structure may show the parent alone.
MEASURED_QUANTITY: pIC50
# pIC50: negative log10 of molar concentration; output just the value

# return pIC50 of CCC12C=C(COC(C)=O)n3c4c(c5ccccc53)CCN(CC(OC(C)=O)C1)C42 (stereo not drawn) [compound 956, 18β-Acetoxy-apovincaminol acetate] (system: phosphodiesterase isolated from cattle brain)
4.52

# return pIC50 of CCC12C=CCN3CCc4c(n(c5cccc([N+](=O)[O-])c45)C(COC(=O)c4cc(OC)c(OC)c(OC)c4)=C1)C32 (stereo not drawn) [compound 888] (system: phosphodiesterase isolated from cattle brain)
5.00

# return pIC50 of COc1ccc(Cc2nccc3cc(OC)c(OC)cc23)cc1OC [papaverin hydrochloride, reference compound] (system: phosphodiesterase isolated from cattle brain)
4.00
